test-system: Luciferin 4-monooxygenase (Photinus pyralis)
Sequence (P08659 whole entry): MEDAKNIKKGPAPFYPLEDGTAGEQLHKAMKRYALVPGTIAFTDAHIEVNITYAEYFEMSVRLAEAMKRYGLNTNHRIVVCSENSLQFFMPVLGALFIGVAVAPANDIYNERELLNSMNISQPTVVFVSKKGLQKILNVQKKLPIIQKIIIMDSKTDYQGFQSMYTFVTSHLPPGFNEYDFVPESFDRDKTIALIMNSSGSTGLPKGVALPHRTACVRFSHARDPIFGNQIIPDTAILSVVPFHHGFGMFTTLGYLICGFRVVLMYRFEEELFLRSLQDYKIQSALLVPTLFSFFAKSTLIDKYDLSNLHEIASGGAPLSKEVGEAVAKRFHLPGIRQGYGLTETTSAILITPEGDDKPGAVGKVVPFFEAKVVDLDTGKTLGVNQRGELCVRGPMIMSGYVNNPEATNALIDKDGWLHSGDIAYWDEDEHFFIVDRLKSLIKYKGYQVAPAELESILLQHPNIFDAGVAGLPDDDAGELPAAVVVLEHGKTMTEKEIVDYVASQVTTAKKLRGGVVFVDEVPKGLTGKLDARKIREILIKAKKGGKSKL
procedure-details: firefly luciferase enzyme inhibitors, dose response, biochemical, luminescence (AID 1891)
Activity calls are given as the source filed them. Rule as the data show it: actives have a measured EC50 and inactives only a lower limit.
parameter: EC50

### Prompt I have this molecule here, `COC(=O)c1nn(-c2ccc3c(c2)CCN3C(C)=O)cc1O` , and I need its recorded EC50.
### Response 15.8 µM (active)

### Prompt # input molecule: `COc1cccc(NC(=O)c2ccc3c(c2)OCCO3)c1` ; wanted: its EC50
### Response 4.7 µM (active)

### Prompt Reported EC50 for `OCCSc1nncn1/N=C/c1c[nH]c2ccccc12` : what is it?
### Response > 112 µM (not active)

### Prompt Param item = `CN(C)c1oc(-c2ccco2)nc1C#N` ; retrieve measured EC50.
### Response > 112 µM (not active)

### Prompt So what does the record say about EC50 for `Cn1cc(S(=O)(=O)N2CCOCC2)cc1C(=O)Nc1cccc(Cl)c1` ?
### Response > 112 µM (not active)

### Prompt Suppose we examine the molecule COc1cccc(C(c2sc3ncnn3c2O)N2CCN(C(=O)c3ccco3)CC2)c1 (stereo unspecified) ; what EC50 value has been reported?
### Response > 112 µM (not active)

### Prompt Suppose we examine the molecule `C(=C\c1nc2ccccc2[nH]1)/c1ccccc1` ; what EC50 value has been reported?
### Response 0.949 µM (active)

### Prompt Need EC50 of `O=C(Nc1ccccc1)c1cccc(N2CCCC2=O)c1` , thanks.
### Response > 112 µM (not active)

### Prompt Look at this molecule and give its reported EC50. `Cc1ccc(OCCC(=O)OCc2csc(CC(=O)Nc3ccccc3C)n2)cc1`
### Response > 112 µM (not active)

### Prompt Look up EC50 for this molecule: `COc1ccccc1-n1cc(-c2ccc(Cl)cc2)nc1O`
### Response > 112 µM (not active)

### Prompt Quick one: EC50 for `COc1cccc(-c2nc(-c3cccs3)no2)c1` ?
### Response > 112 µM (not active)
